Target: T1, human CD19 (human, UniProt P15391 20-556)
T1 construct: also called B-cell surface antigen B4; B-cell antigen CD19
T1 sequence: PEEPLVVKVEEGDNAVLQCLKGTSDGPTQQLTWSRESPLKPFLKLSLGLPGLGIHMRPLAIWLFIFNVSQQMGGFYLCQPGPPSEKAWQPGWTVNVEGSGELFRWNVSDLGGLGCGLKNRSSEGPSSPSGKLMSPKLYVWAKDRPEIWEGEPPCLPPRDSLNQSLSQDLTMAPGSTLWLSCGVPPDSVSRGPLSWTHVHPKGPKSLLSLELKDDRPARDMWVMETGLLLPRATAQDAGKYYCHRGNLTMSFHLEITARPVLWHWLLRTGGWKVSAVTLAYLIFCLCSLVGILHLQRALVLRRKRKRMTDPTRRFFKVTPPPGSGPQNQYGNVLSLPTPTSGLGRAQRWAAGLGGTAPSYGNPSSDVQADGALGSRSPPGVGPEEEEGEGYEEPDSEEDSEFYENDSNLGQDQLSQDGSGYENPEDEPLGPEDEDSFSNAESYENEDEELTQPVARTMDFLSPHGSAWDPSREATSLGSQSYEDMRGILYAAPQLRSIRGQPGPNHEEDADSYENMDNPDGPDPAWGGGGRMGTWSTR
Experiment: binding affinity relative to the parent H1L1 mAb (Example 5); assay and format not named on the sheet
EXPERIMENTAL_READOUT: Fold change binding (fold)
Report as a plain number; the unit fold is understood.

Req: Please indicate Fold change binding recorded for H1.201 / L1.155 (antibody, V domains shown, vs H1L1 (Kabat): VH D55S/S100cT; VL L27cQ/S27eV/A55N/F96I; also called 4G7 H1.201_L1.155) VH: EVQLVESGGGLVKPGGSLKLSCAASGYTFTSYVMHWVRQAPGKGLEWIGYINPYNSGTKYNEKFQGRVTISSDKSISTAYMELSSLRSEDTAMYYCARGTYYYGTRVFDYWGQGTLVTVSS VL: DIVMTQSPATLSLSPGERATLSCRSSKSLQNVNGNTYLYWFQQKPGQSPQLLIYRMSNLNSGVPDRFSGSGSGTEFTLTISSLEPEDFAVYYCMQHLEYPITFGAGTKLEIK
Resp: 4.48

Req: Please indicate Fold change binding recorded for H1 / L1.124 (antibody, V domains shown, vs H1L1 (Kabat): VL L54W; also called 4G7 H1_L1.124) VH: EVQLVESGGGLVKPGGSLKLSCAASGYTFTSYVMHWVRQAPGKGLEWIGYINPYNDGTKYNEKFQGRVTISSDKSISTAYMELSSLRSEDTAMYYCARGTYYYGSRVFDYWGQGTLVTVSS VL: DIVMTQSPATLSLSPGERATLSCRSSKSLLNSNGNTYLYWFQQKPGQSPQLLIYRMSNWASGVPDRFSGSGSGTEFTLTISSLEPEDFAVYYCMQHLEYPFTFGAGTKLEIK
Resp: 1.47

Req: Please indicate Fold change binding recorded for H1.109 / L1 (antibody, V domains shown, vs H1L1 (Kabat): VH T57P; also called 4G7 H1.109_L1) VH: EVQLVESGGGLVKPGGSLKLSCAASGYTFTSYVMHWVRQAPGKGLEWIGYINPYNDGPKYNEKFQGRVTISSDKSISTAYMELSSLRSEDTAMYYCARGTYYYGSRVFDYWGQGTLVTVSS VL: DIVMTQSPATLSLSPGERATLSCRSSKSLLNSNGNTYLYWFQQKPGQSPQLLIYRMSNLASGVPDRFSGSGSGTEFTLTISSLEPEDFAVYYCMQHLEYPFTFGAGTKLEIK
Resp: 1.52

Req: Please indicate Fold change binding recorded for H1.196 / L1.152 (antibody, V domains shown, vs H1L1 (Kabat): VH T57P/S100cT/R100dS; VL L27cQ/S27eV/F96N; also called 4G7 H1.196_L1.152) VH: EVQLVESGGGLVKPGGSLKLSCAASGYTFTSYVMHWVRQAPGKGLEWIGYINPYNDGPKYNEKFQGRVTISSDKSISTAYMELSSLRSEDTAMYYCARGTYYYGTSVFDYWGQGTLVTVSS VL: DIVMTQSPATLSLSPGERATLSCRSSKSLQNVNGNTYLYWFQQKPGQSPQLLIYRMSNLASGVPDRFSGSGSGTEFTLTISSLEPEDFAVYYCMQHLEYPNTFGAGTKLEIK
Resp: 4.36

FYI, the data here is from patent US20100272723A1.
